Provenance of the data: ChEMBL document CHEMBL1201862

# System: TK-10
# ASSAY_COMMENT: NCI tumour cell line growth inhibition, 48 h
Active and inactive are the calls of the source. Rule as the data show it: active = GI50 up to about 1.1 µM and inactive = higher.
// reported GI50 for each item listed

{"COMPOUND": "CC(=O)NNc1nc(C)c(C(=O)NNC(=O)C(=O)Nc2nc3ccc([N+](=O)[O-])cc3s2)s1", "RESULT": "50.4 µM (inactive)"}
{"COMPOUND": "CCNc1ncnc2sc(SCc3ccccc3)nc12", "RESULT": "60.7 µM (inactive)"}
{"COMPOUND": "C/C(CC(O)(C(F)(F)F)C(F)(F)F)=N\\N", "RESULT": "> 10 µM (inactive)"}
{"COMPOUND": "CCOc1ccc2ccccc2c1NC1=NCCO1", "RESULT": "> 100 µM (inactive)"}
{"COMPOUND": "COc1ccc(/C=C2/CCS(=O)(=O)c3ccc(C)cc3C2=O)cc1OC", "RESULT": "13.6 µM (inactive)"}

Fill in the blank: the reported GI50 of N#Cc1sc2c(c1OC(=O)c1ccc(C(F)(F)F)cc1)c(=O)n(-c1ccccc1)c(=S)n2-c1ccccc1 is ____.
27.6 µM (inactive)

Fill in the blank: the reported GI50 of Cc1ccc(S(=O)(=O)N(CC(O)COc2ccccc2)c2c(F)c(F)c(F)c(F)c2F)cc1 (stereo unspecified) is ____.
24.7 µM (inactive)

Fill in the blank: the reported GI50 of CN(C)CCC(CCN(C)C)=NO is ____.
> 100 µM (inactive)

Fill in the blank: the reported GI50 of CN(C)c1ccc(/C=c2/c3ccccc3n3nc4ccccc4c23)cc1 is ____.
> 100 µM (inactive)

Fill in the blank: the reported GI50 of NC(=O)/C(=N\NC(=O)C[n+]1ccccc1)C1NC(=O)NC1=O (stereo unspecified) is ____.
> 100 µM (inactive)

Fill in the blank: the reported GI50 of CCOC(=O)c1nc2ccccc2nc1NCc1ccc(OC)c(OC)c1 is ____.
82.4 µM (inactive)

###

// reported GI50 for each item listed
# Test system: CCRF-CEM
# ASSAY_COMMENT: NCI tumour cell line growth inhibition, 48 h
Calls of active or inactive are those of the source. No stated cut-off is given here; in the data, active = GI50 up to about 1.1 µM and inactive = higher.

{"COMPOUND": "C/C(=N\\Nc1nc2ccccc2n1C)c1ccncn1", "PROPERTY_LABEL": "GI50", "RESULT": "0.0618 µM (active)"}
{"COMPOUND": "CC(C)=C[C@H]1CCC2(OCCO2)[C@]1(C)COCc1ccccc1", "PROPERTY_LABEL": "GI50", "RESULT": "16.1 µM (inactive)"}
{"COMPOUND": "O=C1O/C(=C\\c2ccccc2)N(c2ccccc2)C1=O", "PROPERTY_LABEL": "GI50", "RESULT": "> 100 µM (inactive)"}
{"COMPOUND": "CC1(C)SCc2nc3ccccc3n21", "PROPERTY_LABEL": "GI50", "RESULT": "> 100 µM (inactive)"}
{"COMPOUND": "CC1(C)CCC[C@@]2(C)C1CC[C@@]1(CO1)[C@@H]2/C=C\\C(C=O)CC=O (some centres not stated)", "PROPERTY_LABEL": "GI50", "RESULT": "17.3 µM (inactive)"}

Requested read-out GI50, target or system CCRF-CEM, entry COc1ccccc1/C=N/C12CC3CC(CC(C3)C1)C2
> 100 µM (inactive)

Requested read-out GI50, target or system CCRF-CEM, entry S=C1OC2CCCC[C@H]2O1 (some centres not stated)
> 100 µM (inactive)
